test.summary: Regional dosing study in rat (pharmacokinetics)
Type: in vivo
assay.setup: male, Sprague-Dawley, in vivo, 10 mg/kg, ileum
Counter-ions that a name gives are not always drawn.
parameter.measured: bioavailability (%)
Expressed in %, but write only the number.

Any idea what its bioavailability is? The molecule is COc1ccc(CC(=O)O)cc1Oc1ccc(NC(=O)C(C)(C)C)cc1CSC(C)(C)C [Compound 2, sodium salt]
10.8

* * *

target.under.test: CYP3A4 (Homo sapiens (Human))
Sequence (P08684 whole entry): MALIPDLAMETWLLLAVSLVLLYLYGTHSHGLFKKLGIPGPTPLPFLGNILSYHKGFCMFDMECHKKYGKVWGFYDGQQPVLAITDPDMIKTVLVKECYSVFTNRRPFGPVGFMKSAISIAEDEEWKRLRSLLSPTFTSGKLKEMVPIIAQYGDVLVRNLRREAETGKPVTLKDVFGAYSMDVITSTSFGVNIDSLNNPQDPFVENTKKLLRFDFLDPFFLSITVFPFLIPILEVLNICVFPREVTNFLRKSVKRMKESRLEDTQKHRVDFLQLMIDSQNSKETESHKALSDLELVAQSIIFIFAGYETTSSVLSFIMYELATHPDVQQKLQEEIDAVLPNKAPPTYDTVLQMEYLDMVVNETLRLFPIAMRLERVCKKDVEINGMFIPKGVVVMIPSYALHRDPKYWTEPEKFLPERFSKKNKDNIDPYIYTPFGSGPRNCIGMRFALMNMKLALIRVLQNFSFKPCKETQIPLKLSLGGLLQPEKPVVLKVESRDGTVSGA
test.summary: Extracellular cytochrome P450 inhibition (microsomes)
Type: in vitro ADME
assay.setup: not a potent inhibitor; read-out: IC50, CYP3A4 (summary statement)
pIC50: −log10 of the molar value. Structures can show the parent of a compound that is named as a salt.
parameter.measured: pIC50

Any idea what its pIC50 is? The compound is COc1ccc(CC(=O)O)cc1Oc1ccc(NC(=O)C(C)(C)C)cc1CSC(C)(C)C [Compound 2, sodium salt]
< 4.60

All figures here come from patent US9688624B2.
